Hey, just so you know, these numbers are from ChEMBL document CHEMBL1157539.

# Tested on: Plasmodium falciparum
# assayName: GSK_TCMDC: Inhibition of Plasmodium falciparum 3D7 in whole erythrocytes, using parasite LDH activity as an index of growth.
# Assay type: functional, organism-based
# conditionSet: Plasmodium falciparum, 3D7
Response field label: string, one of Criterion met (XC50 strictly below 700 nM) or Criterion not met.

Query: Bench note: check whether COc1ccc2c(O)c(C3CCC(c4ccc(Cl)cc4)CC3)c(C)nc2c1 (centres undefined) shows XC50 below 700 nM
Result: Criterion met

Query: Bench note: check whether CC[C@H]1CN2CC[C@@H]1C[C@H]2[C@H](O)c1cc(-c2ccccc2)nc2ccc(O)cc12 shows XC50 below 700 nM
Result: Criterion met

Query: Bench note: check whether Cc1cc(=O)oc2c1ccc1oc(C(O)c3ccc(Cl)cc3)c(C)c12 (centres undefined) shows XC50 below 700 nM
Result: Criterion met

Query: Bench note: check whether Fc1cccc(COc2ccc(Nc3ncnc4cc(/C=C/[C@@H]5CCCN5)sc34)cc2Cl)c1 shows XC50 below 700 nM
Result: Criterion met

Query: Bench note: check whether CC(C)CNCc1ccc(-c2ccc(CN(C(=O)NC3CCCCC3)C3CCN(Cc4ccccc4)CC3)cc2)cc1 shows XC50 below 700 nM
Result: Criterion not met
